Provenance of the data: patent US20210009557A1

A collection of compounds and their measured Papp A→B at 90 min, 10 μM
method: in vitro
condition description: human, Caco-2, pH 7.4

Examples with answers:
[
  {
    "compound": "Cc1cccnc1CN(CCC(N)=O)[C@H]1CCCc2cccnc21",
    "Papp A→B at 90 min, 10 μM": "5 to 10 ×10⁻⁶ cm/s"
  },
  {
    "compound": "NC(=O)CCN(Cc1nccs1)[C@H]1CCCc2cccnc21",
    "Papp A→B at 90 min, 10 μM": "> 10 ×10⁻⁶ cm/s"
  },
  {
    "compound": "Clc1cccnc1CN(CCc1c[nH]cn1)[C@H]1CCCc2cccnc21",
    "Papp A→B at 90 min, 10 μM": "5 to 10 ×10⁻⁶ cm/s"
  },
  {
    "compound": "COCCc1ccc(OCC(O)CNC(C)C)cc1 (stereo not drawn) [Metoprolol, reference compound]",
    "Papp A→B at 90 min, 10 μM": "> 10 ×10⁻⁶ cm/s"
  },
  {
    "compound": "Cc1cccnc1CN(CCC(N)=O)Cc1ncccc1Cl",
    "Papp A→B at 90 min, 10 μM": "> 10 ×10⁻⁶ cm/s"
  },
  {
    "compound": "OCCCN(Cc1nc2ccccc2[nH]1)[C@H]1CCCc2cccnc21",
    "Papp A→B at 90 min, 10 μM": "> 10 ×10⁻⁶ cm/s"
  },
  {
    "compound": "CC(C)c1cccnc1CN(CCC(N)=O)Cc1ncccc1-c1ccccc1",
    "Papp A→B at 90 min, 10 μM": "> 10 ×10⁻⁶ cm/s"
  },
  {
    "compound": "CC(C)c1cccnc1CN(CCC(N)=O)[C@H]1CCCc2cccnc21",
    "Papp A→B at 90 min, 10 μM": "< 5 ×10⁻⁶ cm/s"
  },
  {
    "compound": "Cc1cccnc1CN(CCn1ccccc1=O)Cc1ncccc1C",
    "Papp A→B at 90 min, 10 μM": "> 10 ×10⁻⁶ cm/s"
  },
  {
    "compound": "Cc1cccnc1CN(CCc1cnc[nH]1)Cc1ncccc1Cl",
    "Papp A→B at 90 min, 10 μM": "5 to 10 ×10⁻⁶ cm/s"
  }
]

Please examine the following record next.
Problem: Assign Papp A→B at 90 min, 10 μM to the following record: Cc1cccnc1CN(CCc1ccccn1)C(C)c1ccccn1 (stereo not drawn)
Solution: > 10 ×10⁻⁶ cm/s
